- measured-target: K-Ras G12S (Homo sapiens, UniProt P01116, G12S)
- Sequence (P01116 whole entry G12S): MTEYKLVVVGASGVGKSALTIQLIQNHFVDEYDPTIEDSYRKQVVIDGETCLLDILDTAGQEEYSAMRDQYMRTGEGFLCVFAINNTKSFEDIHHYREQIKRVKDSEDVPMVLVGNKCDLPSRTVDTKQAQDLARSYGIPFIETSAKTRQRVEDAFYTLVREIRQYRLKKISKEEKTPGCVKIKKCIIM
- test-method-notes: K-Ras G12S cross-linking assay (comparable procedure, conjugate formation, TOF mass spectrometry)
- Type: binding
- protocol-conditions: Table 4, percent covalently modified K-Ras by MS
reported-endpoint: G12S x-linking (%)

Example compounds with recorded G12S x-linking (%):
                                   compound         data_value
0  CCCN=C=NC1CCN(c2nc(=O)n(-c3c(C)ccnc3C(C)C)c3nc(-c4ccccc4F)c(F)cc23)CC1 [Example 53]     + (0 < x ≤ 10)
1  OB(O)C1CCN(c2ncnc3c(F)c(-c4ccccc4F)c(Cl)cc23)CC1 [Example 19]                  0
2  Cc1cccc2cccc(N3CCc4c(nc(OC[C@@H]5CCCN5C)nc4NCCN(C)C4=NCCO4)C3)c12 [Example 41]                  0
3  Fc1ccccc1-c1c(Cl)cc2c(N3CCC(N=C=Nc4ccccc4)CC3)ncnc2c1F [Example 2]     + (0 < x ≤ 10)
4  Cc1cccc2cccc(N3CCc4c(nc(OC[C@@H]5CCCN5C)nc4N(C)CCN=C=NCc4ccccc4)C3)c12 [Example 27]  ++ (10 < x ≤ 100)

Prompt: // lookup G12S x-linking (%) for COCCN=C=NC1CCN(c2nc(=O)n(-c3c(C)ccnc3C(C)C)c3nc(-c4ccccc4F)c(F)cc23)CC1 [Example 54]
Completion: + (0 < x ≤ 10)

Prompt: // lookup G12S x-linking (%) for Cc1cccc2cccc(N3CCc4c(nc(OC[C@@H]5CCCN5C)nc4N4CCC(B(O)O)CC4)C3)c12 [Example 52]
Completion: + (0 < x ≤ 10)

Prompt: // lookup G12S x-linking (%) for CN=C=NC1CCN(c2ncnc3c(F)c(-c4ccccc4F)c(Cl)cc23)CC1 [Example 4]
Completion: ++ (10 < x ≤ 100)

Prompt: // lookup G12S x-linking (%) for COCCN=C=NCCCN(C)c1nc(=O)n(-c2c(C)ccnc2C(C)C)c2nc(-c3ccccc3F)c(F)cc12 [Example 56]
Completion: ++ (10 < x ≤ 100)

Prompt: // lookup G12S x-linking (%) for Cc1cccc2cccc(N3CCc4c(nc(OC[C@@H]5CCCN5C)nc4N4CCN(C(=O)C5CN5)CC4)C3)c12 (stereo partly drawn) [Example 46]
Completion: + (0 < x ≤ 10)

Prompt: // lookup G12S x-linking (%) for Cc1cccc2cccc(N3CCc4c(nc(OC[C@@H]5CCCN5C)nc4N4CCC(N(C)C(=O)C5CN5C)CC4)C3)c12 (stereo partly drawn) [Example 45]
Completion: + (0 < x ≤ 10)

Prompt: // lookup G12S x-linking (%) for CCCN=C=NC1CCN(c2nc(OC[C@@H]3CCCN3C)nc3c2CCN(c2cccc4cccc(C)c24)C3)CC1 [Example 22]
Completion: ++ (10 < x ≤ 100)

Prompt: // lookup G12S x-linking (%) for CC(C)N=C=NC1CCN(c2ncnc3c(F)c(-c4ccccc4F)c(Cl)cc23)CC1 [Example 3]
Completion: + (0 < x ≤ 10)

Prompt: // lookup G12S x-linking (%) for CCCN=C=NCCCN(C)c1nc(=O)n(-c2c(C)ccnc2C(C)C)c2nc(-c3ccccc3F)c(F)cc12 [Example 55]
Completion: ++ (10 < x ≤ 100)

Prompt: // lookup G12S x-linking (%) for O=C(C1CN1)N1CCN(c2ncnc3c(F)c(-c4ccccc4F)c(Cl)cc23)CC1 (stereo not drawn) [Example 16]
Completion: + (0 < x ≤ 10)

Prompt: // lookup G12S x-linking (%) for Cc1cccc2cccc(N3CCc4c(nc(OC[C@@H]5CCCN5C)nc4N(C)CCCN=C=NCc4ccccc4)C3)c12 [Example 31]
Completion: ++ (10 < x ≤ 100)

Prompt: // lookup G12S x-linking (%) for COCCCN=C=NC1CCN(c2nc(OC[C@@H]3CCCN3C)nc3c2CCN(c2cccc4cccc(C)c24)C3)CC1 [Example 25]
Completion: ++ (10 < x ≤ 100)

Prompt: // lookup G12S x-linking (%) for O=C(C1CCN(c2ncnc3c(F)c(-c4ccccc4F)c(Cl)cc23)CC1)C(F)(F)F [Example 18]
Completion: 0

Prompt: // lookup G12S x-linking (%) for CC(=O)N1CC1C(=O)N(C)C1CCN(c2nc(OC[C@@H]3CCCN3C)nc3c2CCN(c2cccc4cccc(C)c24)C3)CC1 (stereo partly drawn) [Example 43]
Completion: + (0 < x ≤ 10)

Prompt: // lookup G12S x-linking (%) for CC(=O)N1CC1C(=O)N1CCN(c2nc(OC[C@@H]3CCCN3C)nc3c2CCN(c2cccc4cccc(C)c24)C3)CC1 (stereo partly drawn) [Example 47]
Completion: + (0 < x ≤ 10)

Prompt: // lookup G12S x-linking (%) for COc1ccc(CN=C=NCCN(C)c2nc(OC[C@@H]3CCCN3C)nc3c2CCN(c2cccc4cccc(C)c24)C3)cc1 [Example 29]
Completion: ++ (10 < x ≤ 100)

Prompt: // lookup G12S x-linking (%) for Cc1cccc2cccc(N3CCc4c(nc(OC[C@@H]5CCCN5C)nc4NCCNC(=O)NCCCl)C3)c12 [Example 36]
Completion: + (0 < x ≤ 10)

Prompt: // lookup G12S x-linking (%) for COc1ccc(CN=C=NCCCN(C)c2nc(OC[C@@H]3CCCN3C)nc3c2CCN(c2cccc4cccc(C)c24)C3)cc1 [Example 33]
Completion: ++ (10 < x ≤ 100)

Prompt: // lookup G12S x-linking (%) for COc1ccc(N=C=NC2CCN(c3ncnc4c(F)c(-c5ccccc5F)c(Cl)cc34)CC2)cc1 [Example 5]
Completion: 0

// data source = patent US20230100838A1
